- system_tested: Protein kinase C iota type (Homo sapiens) (UniProt P41743)
- Sequence (whole entry): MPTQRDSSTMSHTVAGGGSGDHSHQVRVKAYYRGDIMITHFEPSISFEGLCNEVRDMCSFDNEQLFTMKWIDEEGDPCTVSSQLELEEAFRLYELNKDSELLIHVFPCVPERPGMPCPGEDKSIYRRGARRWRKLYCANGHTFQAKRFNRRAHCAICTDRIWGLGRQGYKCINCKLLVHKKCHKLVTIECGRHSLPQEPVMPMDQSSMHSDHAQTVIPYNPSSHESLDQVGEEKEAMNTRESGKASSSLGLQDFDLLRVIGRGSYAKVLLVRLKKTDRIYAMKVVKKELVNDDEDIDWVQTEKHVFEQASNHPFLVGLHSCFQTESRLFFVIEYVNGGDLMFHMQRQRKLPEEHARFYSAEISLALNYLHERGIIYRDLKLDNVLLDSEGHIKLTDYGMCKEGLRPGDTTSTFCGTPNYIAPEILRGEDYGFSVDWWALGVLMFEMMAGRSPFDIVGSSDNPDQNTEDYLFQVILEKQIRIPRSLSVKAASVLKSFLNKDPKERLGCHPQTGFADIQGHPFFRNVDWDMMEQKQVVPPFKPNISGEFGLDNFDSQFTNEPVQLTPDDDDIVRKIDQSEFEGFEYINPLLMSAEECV
- condition_parameters: at 0.1 µM
- Description: GSK_PKIS: PKC-iota mean inhibition at 0.1 uM [Nanosyn]
property: inhibition (%)
Answers are plain numbers, in %.

[
  {
    "smiles_repr": "COc1cccc(-n2ncc3c(N/N=C/c4ccc(F)cc4)ncnc32)c1",
    "observed_value": 1.87
  },
  {
    "smiles_repr": "COc1cccc(-c2c[nH]c3c(N/N=C/c4ccncc4)ncnc23)c1",
    "observed_value": 4.1
  },
  {
    "smiles_repr": "COc1ccc(-c2cc(-c3c[nH]nc3-c3ccccn3)ccn2)cc1",
    "observed_value": 1.68
  },
  {
    "smiles_repr": "CNC(=O)c1cncc(/C=C/c2ccccc2Cl)c1",
    "observed_value": 1.77
  },
  {
    "smiles_repr": "CCc1nn2ncccc2c1-c1ccnc(NC2CC2)n1",
    "observed_value": 0.47
  },
  {
    "smiles_repr": "CC(C)COC(=O)c1ccc2c(c1)/C(=C/Nc1ccc(S(N)(=O)=O)cc1)C(=O)N2",
    "observed_value": -0.44
  },
  {
    "smiles_repr": "CS(=O)(=O)CCNCc1ccc(-c2ccc3ncnc(Nc4ccc(OCc5ccccc5)c(C(F)(F)F)c4)c3c2)o1",
    "observed_value": 1.93
  }
]

Read the next record carefully.
API: value(readout=inhibition, system=Protein kinase C iota type (Homo sapiens) (UniProt P41743)) for record Cc1cccc(Nc2ncc(-c3ccccc3)o2)c1
1.43

====

Would you kindly list inhibition for each of these compounds?
- system_tested: Serine/threonine-protein kinase PLK1 (Homo sapiens);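 further: reported value is a mean PLK1 inhibition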
- condition_parameters: at 1 µM

Could you tell me inhibition for each of these compounds? They are listed below.
1. CC(=O)NCc1cccc(C#Cc2cncnc2Nc2ccc(OCc3cccc(F)c3)c(Cl)c2)c1
2. COc1ccc2[nH]c3c4[nH]c5ccc(OC)cc5c4c4c(c3c2c1)C(=O)NC4=O
3. COc1cc2ncn(-c3cc(OCc4ccccc4C(F)(F)F)c(C(=O)N(C)C)s3)c2cc1OC
4. Fc1cccc(COc2ccc(Nc3ncnc4sc(-c5ccco5)cc34)cc2Cl)c1

1.35%
9.29%
3.34%
4.61%

Could you tell me inhibition for each of these compounds? They are listed below.
1. CC(=O)Nc1cccc(C#Cc2cncnc2Nc2ccc(OCc3cccc(F)c3)c(Cl)c2)c1
2. CCn1c(-c2nonc2N)nc2c(C#CC(C)(C)O)nc(OC[C@H](N)c3ccccc3)cc21
3. CCn1c(-c2nonc2N)nc2ccccc21
4. COc1ccc(-c2oc3ncnc(N)c3c2-c2ccc(NC(=O)Nc3cc(C(F)(F)F)ccc3F)cc2)cc1
5. c1cc(-c2cnn3nc(N4CCOCC4)ccc23)nc(NC2CC2)n1
6. CC1=C(C(=O)Nc2cc(Cl)c3[nH]ncc3c2)C(c2ccc(C(F)(F)F)cc2)CC(=O)N1 (centres undefined)
7. CS(=O)(=O)CCNCc1ccc(-c2ccc3ncnc(Nc4ccc(OCc5ccccc5)c(C(F)(F)F)c4)c3c2)o1

1. 2.89%
2. 7.68%
3. 2.85%
4. 4.48%
5. 2.08%
6. 4.12%
7. 1.98%
